- TESTED_TARGET: human TLR9 (Homo sapiens, UniProt Q9NR96)
- Sequence (Q9NR96 26-1032): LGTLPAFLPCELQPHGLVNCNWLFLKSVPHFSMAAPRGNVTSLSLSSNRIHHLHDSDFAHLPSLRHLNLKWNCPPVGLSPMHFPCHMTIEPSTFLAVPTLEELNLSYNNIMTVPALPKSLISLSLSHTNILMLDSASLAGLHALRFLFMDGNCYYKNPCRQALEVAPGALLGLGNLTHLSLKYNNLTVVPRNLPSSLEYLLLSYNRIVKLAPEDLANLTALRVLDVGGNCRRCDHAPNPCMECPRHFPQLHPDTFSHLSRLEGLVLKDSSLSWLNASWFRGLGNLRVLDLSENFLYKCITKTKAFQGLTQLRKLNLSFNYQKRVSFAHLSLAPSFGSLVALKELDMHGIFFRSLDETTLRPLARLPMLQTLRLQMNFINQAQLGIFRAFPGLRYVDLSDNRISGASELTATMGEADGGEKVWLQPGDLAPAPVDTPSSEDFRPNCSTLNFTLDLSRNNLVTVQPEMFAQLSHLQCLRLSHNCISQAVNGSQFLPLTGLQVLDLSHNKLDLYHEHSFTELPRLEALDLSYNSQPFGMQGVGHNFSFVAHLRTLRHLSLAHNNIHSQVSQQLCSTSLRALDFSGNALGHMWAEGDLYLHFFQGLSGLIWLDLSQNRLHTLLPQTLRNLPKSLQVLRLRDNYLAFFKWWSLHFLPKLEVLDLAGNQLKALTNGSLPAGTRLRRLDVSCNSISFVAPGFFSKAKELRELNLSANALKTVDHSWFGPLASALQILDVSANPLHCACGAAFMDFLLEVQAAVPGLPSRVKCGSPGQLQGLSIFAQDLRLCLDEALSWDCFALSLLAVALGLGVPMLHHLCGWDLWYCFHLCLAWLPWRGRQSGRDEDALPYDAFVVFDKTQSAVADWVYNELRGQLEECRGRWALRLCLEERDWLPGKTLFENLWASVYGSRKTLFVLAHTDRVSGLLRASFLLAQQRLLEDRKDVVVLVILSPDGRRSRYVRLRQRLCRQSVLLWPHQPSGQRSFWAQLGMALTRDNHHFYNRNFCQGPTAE
- EXPERIMENT_SUMMARY: TLR9 inhibition reporter assay (HEK-Blue cells, SEAP reporter, ODN2006 stimulation)
- CONDITIONS_USED: HEK-Blue cells overexpressing human TLR9, ODN2006 5 nM
Readings of IC50 for the listed compounds
VALUE_KIND: IC50 (nM)

INSERT INTO assay_data (smiles_notation, value_kind, value_prefix, measurement) VALUES
  ('CCc1c(-c2ccc(OC)c(OC)c2)[nH]c2ccc(C3CCNCC3)cc12', 'IC50', '=', 1410),
  ('COc1ccc(-c2[nH]c3ccc(C4CCN(C5CCN(CCC(C)C)CC5)CC4)cc3c2C)cc1OC', 'IC50', '=', 218),
  ('COc1ccc(-c2[nH]c3ccc(C4CCN(C(=O)CC(F)(F)F)CC4)cc3c2CC(F)(F)F)cc1OC', 'IC50', '≥', 50000),
  ('COc1ccc(-c2[nH]c3ccc(C4CCN(CC(=O)N5CCN(c6ccncc6)CC5)CC4)cc3c2CC(F)(F)F)cc1OC', 'IC50', '=', 141),
  ('COc1ccc(-c2[nH]c3ccc(C4CCN(C(=O)CN5CCC(N6CCCCC6)CC5)CC4)cc3c2C(C)C)cc1OC', 'IC50', '=', 990),
  ('CCNC(=O)N1CCC(c2ccc3[nH]c(-c4ccc(OC)c(OC)c4)c(CC(F)(F)F)c3c2)CC1', 'IC50', '≥', 50000),
  ('COc1ccc(-c2[nH]c3ccc(C4CCN(C(=O)CN5CCC[C@H](C(=O)N6CCC(N(C)C)CC6)C5)CC4)cc3c2C(C)C)cc1OC', 'IC50', '=', 502),
  ('COc1ccc(-c2[nH]c3ccc(C4CCN(Cc5ccnc6ccccc56)CC4)cc3c2C)cc1OC', 'IC50', '=', 3590),
  ('COc1ccc(-c2[nH]c3ccc(C4CCN(CC(=O)N5CC[C@@H](N(C)C)C5)CC4)cc3c2CC(F)(F)F)cc1OC', 'IC50', '=', 370);

====

- TESTED_TARGET: UniProt Q9NYK1
- Sequence (Q9NYK1 27-1049): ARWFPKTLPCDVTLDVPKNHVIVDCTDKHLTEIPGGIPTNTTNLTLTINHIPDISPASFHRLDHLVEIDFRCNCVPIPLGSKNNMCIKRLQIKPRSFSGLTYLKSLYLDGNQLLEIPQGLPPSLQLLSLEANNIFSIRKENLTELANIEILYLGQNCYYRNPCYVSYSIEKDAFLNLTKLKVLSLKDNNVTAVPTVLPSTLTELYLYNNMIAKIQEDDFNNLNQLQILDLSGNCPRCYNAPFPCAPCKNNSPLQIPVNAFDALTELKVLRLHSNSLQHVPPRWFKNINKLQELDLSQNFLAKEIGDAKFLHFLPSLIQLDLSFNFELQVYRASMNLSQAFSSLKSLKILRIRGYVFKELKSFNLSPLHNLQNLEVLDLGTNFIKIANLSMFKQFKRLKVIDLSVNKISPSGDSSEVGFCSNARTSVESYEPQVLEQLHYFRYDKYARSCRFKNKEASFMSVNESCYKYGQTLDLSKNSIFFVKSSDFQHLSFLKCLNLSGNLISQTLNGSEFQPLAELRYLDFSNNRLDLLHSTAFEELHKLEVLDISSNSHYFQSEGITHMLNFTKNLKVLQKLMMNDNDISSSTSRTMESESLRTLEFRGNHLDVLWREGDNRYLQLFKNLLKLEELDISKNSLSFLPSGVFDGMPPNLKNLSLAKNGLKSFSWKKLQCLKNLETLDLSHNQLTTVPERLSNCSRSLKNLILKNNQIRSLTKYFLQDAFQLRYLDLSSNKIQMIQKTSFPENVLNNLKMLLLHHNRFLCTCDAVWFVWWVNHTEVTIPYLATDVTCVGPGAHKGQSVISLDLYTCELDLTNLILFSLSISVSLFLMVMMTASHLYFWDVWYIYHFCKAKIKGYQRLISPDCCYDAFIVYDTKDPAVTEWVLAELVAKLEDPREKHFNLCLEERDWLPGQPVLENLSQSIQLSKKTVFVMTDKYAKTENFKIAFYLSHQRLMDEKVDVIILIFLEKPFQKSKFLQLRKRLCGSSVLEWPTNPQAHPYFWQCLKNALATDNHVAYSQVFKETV
- EXPERIMENT_SUMMARY: TLR7 inhibition reporter assay (HEK-Blue cells, SEAP reporter, gardiquimod stimulation)
- CONDITIONS_USED: HEK-Blue cells overexpressing human TLR7, gardiquimod 7.5 μM
pIC50: −log10 of the molar value.
VALUE_KIND: pIC50

INSERT INTO assay_data (molecule, tested_target, measurement) VALUES
  ('COc1ccc(-c2[nH]c3ccc(C4CCN(Cc5csc(N)n5)CC4)cc3c2C)cc1OC', 'UniProt Q9NYK1', 5.68),
  ('CCc1c(-c2ccc(OC)c(OC)c2)[nH]c2ccc(C3CCN(C(=O)CN4CC[C@@H](O)C4)CC3)cc12', 'UniProt Q9NYK1', 7.37),
  ('COc1ccc(-c2[nH]c3ccc(C4CCN(C(=O)CN5CCC[C@@H](C(=O)N6C(C)CCC6C)C5)CC4)cc3c2C(C)C)cc1OC (stereo partly shown)', 'UniProt Q9NYK1', 6.83),
  ('COc1ccc(-c2[nH]c3ccc(C4CCN(C(=O)CN5CCC(O)CC5)CC4)cc3c2C(C)C)cc1OC', 'UniProt Q9NYK1', 7.44),
  ('COc1ccc(-c2[nH]c3ccc(C4CCN(C(=O)CNC5CCC(N(C)C)CC5)CC4)cc3c2C(C)C)cc1OC (stereo not shown)', 'UniProt Q9NYK1', 7.44),
  ('COc1ccc(-c2[nH]c3ccc(C4CCN(C5CCN(C6CCCC6)CC5)CC4)cc3c2C)cc1OC', 'UniProt Q9NYK1', 6.65),
  ('COc1ccc(-c2[nH]c3ccc(C4CCN(CC(=O)N(C)C5CCN(C)C5)CC4)cc3c2CC(F)(F)F)cc1OC (stereo not shown)', 'UniProt Q9NYK1', 7.57);

====

- TESTED_TARGET: human TLR8 (Homo sapiens)
- Sequence (Q9NR97 27-1041): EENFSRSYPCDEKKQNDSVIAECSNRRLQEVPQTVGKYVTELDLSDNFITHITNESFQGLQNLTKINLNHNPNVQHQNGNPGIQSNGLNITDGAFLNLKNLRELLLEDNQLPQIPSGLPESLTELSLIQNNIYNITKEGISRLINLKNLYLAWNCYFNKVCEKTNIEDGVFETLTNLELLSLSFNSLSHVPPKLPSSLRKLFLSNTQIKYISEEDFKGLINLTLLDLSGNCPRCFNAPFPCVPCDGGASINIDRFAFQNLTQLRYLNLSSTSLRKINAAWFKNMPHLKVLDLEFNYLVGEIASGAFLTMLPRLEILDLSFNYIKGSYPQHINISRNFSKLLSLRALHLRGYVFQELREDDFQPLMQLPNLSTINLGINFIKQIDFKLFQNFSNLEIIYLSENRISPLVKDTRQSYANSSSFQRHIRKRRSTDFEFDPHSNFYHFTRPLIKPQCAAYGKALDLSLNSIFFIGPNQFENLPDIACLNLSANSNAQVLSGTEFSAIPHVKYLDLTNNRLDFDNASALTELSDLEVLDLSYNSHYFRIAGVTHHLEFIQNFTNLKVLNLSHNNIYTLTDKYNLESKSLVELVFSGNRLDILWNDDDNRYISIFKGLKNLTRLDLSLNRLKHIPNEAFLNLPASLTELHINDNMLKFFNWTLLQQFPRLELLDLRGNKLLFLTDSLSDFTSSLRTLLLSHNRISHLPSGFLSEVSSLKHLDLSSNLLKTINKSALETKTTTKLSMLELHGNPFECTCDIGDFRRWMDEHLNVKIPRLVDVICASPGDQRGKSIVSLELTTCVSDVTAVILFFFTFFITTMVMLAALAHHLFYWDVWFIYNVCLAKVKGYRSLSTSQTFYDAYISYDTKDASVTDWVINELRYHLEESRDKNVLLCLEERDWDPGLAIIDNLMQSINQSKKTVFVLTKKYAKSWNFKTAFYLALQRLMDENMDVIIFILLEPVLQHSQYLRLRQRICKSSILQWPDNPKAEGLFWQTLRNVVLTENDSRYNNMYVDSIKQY
- EXPERIMENT_SUMMARY: TLR8 inhibition reporter assay (HEK-Blue cells, SEAP reporter, R848 stimulation)
- CONDITIONS_USED: HEK-Blue cells overexpressing human TLR8, R848 15.9 μM
pIC50: −log10 of the molar value.
Label MET when pIC50 is at or above 7; otherwise label NOT MET.

INSERT INTO results (compound, tested_target, class_name) VALUES
  ('COc1ccc(-c2[nH]c3ccc(C4CCN(CC(=O)N(C)C)CC4)cc3c2C(C)C)cc1OC [Example 312]', 'human TLR8 (Homo sapiens)', 'MET'),
  ('CCc1c(-c2ccc(OC)c(OC)c2)[nH]c2ccc(C3CCN(C4CCN(Cc5cc(C)n[nH]5)CC4)CC3)cc12 [Example 131]', 'human TLR8 (Homo sapiens)', 'MET'),
  ('CCc1c(-c2ccc(OC)c(OC)c2)[nH]c2ccc(C3CCN(C(=O)CNCCO)CC3)cc12 [Example 159]', 'human TLR8 (Homo sapiens)', 'MET'),
  ('COc1ccc(-c2[nH]c3ccc(C4CCN(C5CCN(C6CCCC6)CC5)CC4)cc3c2C)cc1OC [Example 62]', 'human TLR8 (Homo sapiens)', 'NOT MET'),
  ('COc1ccc(-c2[nH]c3ccc(C4CCN(C(=O)COc5cccnc5)CC4)cc3c2CC(F)(F)F)cc1OC [Example 349]', 'human TLR8 (Homo sapiens)', 'NOT MET'),
  ('COc1ccc(-c2[nH]c3ccc(C4CCN(C(=O)CNC(CO)CO)CC4)cc3c2C(C)C)cc1OC [Example 220]', 'human TLR8 (Homo sapiens)', 'MET'),
  ('CCNC(=O)N1CCC(c2ccc3[nH]c(-c4ccc(OC)c(OC)c4)c(CC(F)(F)F)c3c2)CC1 [Example 356]', 'human TLR8 (Homo sapiens)', 'NOT MET'),
  ('CNCCN1CCC(c2ccc3[nH]c(-c4ccc(OC)c(OC)c4)c(Cl)c3c2)CC1 [Example 119]', 'human TLR8 (Homo sapiens)', 'NOT MET'),
  ('COc1ccc(-c2[nH]c3ccc(C4CCN(CC(=O)NC5CCN(C(C)C)CC5)CC4)cc3c2C(C)C)cc1OC [Example 273]', 'human TLR8 (Homo sapiens)', 'MET'),
  ('COc1ccc(-c2[nH]c3ccc(C4CCN(C(=O)CNCCC(C)O)CC4)cc3c2C(C)C)cc1OC (stereo not shown) [Example 237]', 'human TLR8 (Homo sapiens)', 'MET'),
  ('CCN(CC)C(=O)C1CCCN(CC(=O)N2CCC(c3ccc4[nH]c(-c5ccc(OC)c(OC)c5)c(C(C)C)c4c3)CC2)C1 (stereo not shown) [Example 248]', 'human TLR8 (Homo sapiens)', 'MET'),
  ('COc1ccc(-c2[nH]c3ccc(C4CCN(C(=O)CN5CCC[C@@H](C(=O)N6CCCC6)C5)CC4)cc3c2C(C)C)cc1OC [Example 303]', 'human TLR8 (Homo sapiens)', 'MET'),
  ('CCC(CO)NCC(=O)N1CCC(c2ccc3[nH]c(-c4ccc(OC)c(OC)c4)c(C(C)C)c3c2)CC1 (stereo not shown) [Example 233]', 'human TLR8 (Homo sapiens)', 'MET'),
  ('CCc1c(-c2ccc(OC)c(OC)c2)[nH]c2ccc(C3CCN(C(=O)CNc4nccs4)CC3)cc12 [Example 177]', 'human TLR8 (Homo sapiens)', 'MET'),
  ('COc1ccc(-c2[nH]c3ccc(C4CCN(CC(=O)N5CCN(C)CC5)CC4)cc3c2C(C)C)cc1OC [Example 274]', 'human TLR8 (Homo sapiens)', 'NOT MET'),
  ('COc1ccc(-c2[nH]c3ccc(C4CCN(C(=O)CN5CCC[C@H](C(=O)NC(C)C)C5)CC4)cc3c2C(C)C)cc1OC [Example 285]', 'human TLR8 (Homo sapiens)', 'MET'),
  ('COc1ccc(-c2[nH]c3ccc(C4CCN(CC(=O)NCCCn5ccnc5)CC4)cc3c2CC(F)(F)F)cc1OC [Example 383]', 'human TLR8 (Homo sapiens)', 'MET'),
  ('COc1ccc(-c2[nH]c3ccc(C4CCN(C5CCN(CCC(F)(F)F)CC5)CC4)cc3c2C)cc1OC [Example 50]', 'human TLR8 (Homo sapiens)', 'NOT MET'),
  ('COc1ccc(-c2[nH]c3ccc(C4CCN(C(=O)CN5CCN(C(C)C)CC5)CC4)cc3c2C(C)C)cc1OC [Example 240]', 'human TLR8 (Homo sapiens)', 'MET'),
  ('COc1ccc(-c2[nH]c3ccc(C4CCN(C5CCN(CC(C)C)CC5)CC4)cc3c2Cl)cc1OC [Example 120, di-trifluoroacetic acid]', 'human TLR8 (Homo sapiens)', 'NOT MET'),
  ('COc1ccc(-c2[nH]c3ccc(C4CCN(C(=O)CN5CCCC(C(=O)NC6CCN(C(C)C)CC6)C5)CC4)cc3c2C(C)C)cc1OC (single isomer, unassigned) [Example 281]', 'human TLR8 (Homo sapiens)', 'MET'),
  ('CCN(CC)C(=O)C1CCCN(CC(=O)N2CCC(c3ccc4[nH]c(-c5ccc(OC)c(OC)c5)c(C(C)C)c4c3)CC2)C1 (stereo not shown) [Example 247]', 'human TLR8 (Homo sapiens)', 'MET'),
  ('COc1ccc(-c2[nH]c3ccc(C4CCN(C(=O)CN5CCCN(C)CC5)CC4)cc3c2C)cc1OC [Example 410]', 'human TLR8 (Homo sapiens)', 'NOT MET'),
  ('CCc1c(-c2ccc(OC)c(OC)c2)[nH]c2ccc(C3CCN(C4CCN(C)CC4)CC3)cc12 [Example 150]', 'human TLR8 (Homo sapiens)', 'NOT MET');
